Source: patent US11008403

# SYSTEM UNDER TEST: human TfR ECD (human)
# Sequence (chain, as listed by the source): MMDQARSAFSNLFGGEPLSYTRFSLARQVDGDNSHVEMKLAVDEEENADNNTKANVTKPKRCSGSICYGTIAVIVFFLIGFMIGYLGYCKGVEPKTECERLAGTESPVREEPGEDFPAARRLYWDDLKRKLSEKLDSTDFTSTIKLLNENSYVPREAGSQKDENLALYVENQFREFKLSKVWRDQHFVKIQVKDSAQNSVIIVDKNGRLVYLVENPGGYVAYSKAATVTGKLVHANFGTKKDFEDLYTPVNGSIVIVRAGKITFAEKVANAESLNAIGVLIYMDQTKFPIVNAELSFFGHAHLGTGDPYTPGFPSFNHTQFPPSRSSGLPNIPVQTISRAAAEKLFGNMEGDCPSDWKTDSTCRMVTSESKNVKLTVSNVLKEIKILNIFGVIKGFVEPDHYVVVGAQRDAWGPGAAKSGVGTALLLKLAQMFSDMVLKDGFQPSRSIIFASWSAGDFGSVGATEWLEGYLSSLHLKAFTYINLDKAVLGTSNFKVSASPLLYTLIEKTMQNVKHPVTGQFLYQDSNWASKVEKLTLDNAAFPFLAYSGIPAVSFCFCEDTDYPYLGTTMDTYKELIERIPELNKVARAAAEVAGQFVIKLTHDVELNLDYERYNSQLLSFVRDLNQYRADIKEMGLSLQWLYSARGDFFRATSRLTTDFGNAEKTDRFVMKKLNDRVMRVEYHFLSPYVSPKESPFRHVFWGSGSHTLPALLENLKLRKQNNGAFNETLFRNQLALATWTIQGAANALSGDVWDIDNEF
# ASSAY OVERVIEW: ELISA
binders and their reported EC50

BINDER: hu15G11.v5 HC G49A (antibody, V domains shown) VH: EVQLVQSGAEVKKPGASVKVSCKASGYTFTSYWMHWVRQAPGQRLEWIAEINPTNGRTNYIEKFKSRATLTVDKSASTAYMELSSLRSEDTAVYYCARGTRAYHYWGQGTMVTVSS VL: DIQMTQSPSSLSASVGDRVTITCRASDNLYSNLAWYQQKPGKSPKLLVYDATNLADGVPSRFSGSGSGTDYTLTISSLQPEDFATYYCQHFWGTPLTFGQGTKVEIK
EC50 (ng/mL): 0.3
//
BINDER: hu15G11.v5 LC D56A (antibody, V domains shown) VH: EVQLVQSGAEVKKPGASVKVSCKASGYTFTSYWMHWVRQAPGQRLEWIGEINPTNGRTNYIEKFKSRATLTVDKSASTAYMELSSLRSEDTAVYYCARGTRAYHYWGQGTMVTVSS VL: DIQMTQSPSSLSASVGDRVTITCRASDNLYSNLAWYQQKPGKSPKLLVYDATNLAAGVPSRFSGSGSGTDYTLTISSLQPEDFATYYCQHFWGTPLTFGQGTKVEIK
EC50 (ng/mL): 0.3
//
BINDER: hu15G11.v5 HC F29A (antibody, V domains shown) VH: EVQLVQSGAEVKKPGASVKVSCKASGYTATSYWMHWVRQAPGQRLEWIGEINPTNGRTNYIEKFKSRATLTVDKSASTAYMELSSLRSEDTAVYYCARGTRAYHYWGQGTMVTVSS VL: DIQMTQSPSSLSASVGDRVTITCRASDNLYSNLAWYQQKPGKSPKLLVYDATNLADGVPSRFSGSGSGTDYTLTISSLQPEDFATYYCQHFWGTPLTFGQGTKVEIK
EC50 (ng/mL): 1.5
